- targetDesc: PAG1 (UniProt Q9NWQ8)
- Sequence (Q9NWQ8 whole entry): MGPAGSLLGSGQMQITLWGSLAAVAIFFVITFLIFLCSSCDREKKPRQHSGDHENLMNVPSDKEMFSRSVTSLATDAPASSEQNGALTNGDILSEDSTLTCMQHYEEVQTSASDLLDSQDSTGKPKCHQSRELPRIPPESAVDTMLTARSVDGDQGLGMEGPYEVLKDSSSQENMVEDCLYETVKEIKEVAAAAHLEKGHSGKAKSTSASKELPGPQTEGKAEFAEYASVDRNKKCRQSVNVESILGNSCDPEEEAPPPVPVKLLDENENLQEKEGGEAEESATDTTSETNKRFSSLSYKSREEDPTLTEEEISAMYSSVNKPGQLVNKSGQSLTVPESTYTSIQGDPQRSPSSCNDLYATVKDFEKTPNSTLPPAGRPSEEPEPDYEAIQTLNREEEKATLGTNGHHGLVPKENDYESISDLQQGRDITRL
- measurementDescription: EC50 for competition of Kinobead binding
- conditions: lysate: 5-cell-line mix (COLO-205, K562, SK-N-BE(2), MV-4-11, OVCAR-8)
endpoint: pEC50
Conceptually, pEC50 converts a concentration in mol/L into minus its log10.

Request: Given the compound COc1ccc2c(C(=O)Nc3ccc(NC(=O)c4nn(C5CCN(C(=O)CC(C)(C)C#N)CC5)c5ccc(F)cc45)cc3Cl)cnn2c1 , what is its reported pEC50?
Result: 7.15

====

- targetDesc: FECH (UniProt P22830)
- Sequence (P22830 whole entry): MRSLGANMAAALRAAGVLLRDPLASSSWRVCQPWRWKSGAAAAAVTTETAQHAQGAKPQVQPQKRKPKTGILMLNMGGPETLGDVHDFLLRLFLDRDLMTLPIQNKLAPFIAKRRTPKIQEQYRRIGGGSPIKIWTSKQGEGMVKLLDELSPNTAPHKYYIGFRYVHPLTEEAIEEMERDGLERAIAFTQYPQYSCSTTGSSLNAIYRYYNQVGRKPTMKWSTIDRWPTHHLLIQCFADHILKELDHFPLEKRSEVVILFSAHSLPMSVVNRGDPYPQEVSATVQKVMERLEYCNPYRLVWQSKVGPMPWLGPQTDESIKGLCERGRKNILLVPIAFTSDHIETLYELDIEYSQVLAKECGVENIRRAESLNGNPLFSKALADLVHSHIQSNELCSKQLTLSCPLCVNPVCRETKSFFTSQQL
- measurementDescription: apparent Kd (Kinobeads competition)
- conditions: lysate: 5-cell-line mix (COLO-205, K562, SK-N-BE(2), MV-4-11, OVCAR-8)
endpoint: Kd
Put down the number, then write its unit next to it.

Request: Give Kd (FECH (UniProt P22830)) of the following compound: COc1ccc2c(C(=O)Nc3ccc(NC(=O)c4nn(C5CCN(C(=O)CC(C)(C)C#N)CC5)c5ccc(F)cc45)cc3Cl)cnn2c1
Result: 6.35 µM
